Value source: a melting point compilation (Tetko et al.)

Catalogue of molecules with associated melting point
conditions: a range is the spread between reports

The cases that follow already have their melting point on record.
CC(C)C(=O)c1ccccc1 ... -1.3 to 1 °C
CCCC(N)C(=O)O (racemic) ... 303 to 307 °C
CCCCCOC(=O)CCC ... -73.2 to -73 °C

INPUT: Entry `CCc1ccc(Br)cc1` has what melting point?
OUTPUT: -43.5 to -43 °C

INPUT: Try `Cc1ccnc(C)c1` next.
OUTPUT: -64 to -60 °C

INPUT: Try `O=C(Cl)c1ccc(Cl)cc1Cl` next.
OUTPUT: 16.5 to 18 °C
